Listing: protein stability index of selected sequences
experiment: protein stability index of a GFP-peptide fusion (yeast GPS) (PSI 1-4); higher = more stable; sorted into four equal gates, so the index is relative within each strain; settings: doa10∆

# RECORD SEQUENCE, protein stability index
rows = [
    ("TDLTNNSTDGAKITEIG [YIL149C/MLP2]", 3.35),
    ("SNGGNNMLPQRQSSVGS [SNF2]", 1.76),
    ("EGDIQVLKSYGAAPYAA [RPT1]", 2.84),
    ("YKVEHPFFARFKLRIQT [RPB11]", 2),
    ("DMVMATVKKGKPELRKK [RPL23A]", 3.49),
    ("DYLNAELGEFFVNGVAT [FAS2]", 3.09),
    ("VGGHNVTIREQINIMPS [SIR3]", 2.91),
    ("NTPLVGAAFKVISNLVP [YJL039C/NUP192]", 1.96),
    ("KSCEPVSISTSVKPHVV [SIR4]", 2.6),
    ("EDITEPKPDKPSGRTRG [ESC2]", 3.07),
    ("DFDGDEMNLHVPQSEET [RPO21]", 3.04),
    ("RKKRTRRLKRKRRKVRA [RPL41A]", 3.14),
    ("ISSEKLLTLTNAANVPV [RPP1A]", 2.95),
    ("NYIINDIKKNNKIKLNI [SRB8]", 3.16),
    ("RGQQVENPTDNFIIWIN [GRR1]", 2.08),
    ("FNATVDETKGFDDNDSG [MED2]", 3.14),
    ("KISFNLRLKLFLYEILS [SRB8]", 1.22),
    ("RKILKKTFKNPKYESLK [RPN5]", 2.87),
    ("NEQEEKSEEVKAEDDTG [RPC37]", 3.2),
    ("VLIAQERSAGNIVQVFK [RPB2]", 2.85),
    ("FDVVLTTFEYIIKERAL [SNF2]", 2.12),
    ("EKLVSDLRLIKVPQQAA [SMC1]", 3.19),
    ("SVIPLKGRYAPETGDHV [RRP4]", 2.53),
    ("GILDEIMFNHARIIRSE [RGR1]", 2.75),
    ("QRSNISTAIKSLVALGI [CDC53]", 1.86),
    ("RSEEEVTKLNVLVDEIK [YIL149C/MLP2]", 3.42),
    ("FQFFPKELDALQEKEQL [ISW2]", 2.79),
    ("APLKHGVGILYKGMASN [BRR2]", 1.93),
    ("NRYAFSQPTNSTTTSLH [SMC4]", 2.44),
    ("QQQDQPEQSEQPEQHQD [RPN10]", 3),
]

====

assay: protein stability index of a GFP-peptide fusion (yeast GPS) (PSI 1-4); higher = more stable; sorted into four equal gates, so the index is relative within each strain; settings: doa10∆
Values of protein stability index greater than or equal to 3 map to Criterion met; values below map to Criterion not met.

# RECORD SEQUENCE, CAT
records = [
    ("SLEENAMSTVTLGVVGK [SKI6]", "Criterion met"),
    ("FEFQYLTIGVKFFMKHG [SRB5]", "Criterion not met"),
    ("GKTGLSNMILGSVELST [YML103C/NUP188]", "Criterion not met"),
    ("RAIILERNAAYQKEYET [RPL7A]", "Criterion not met"),
    ("SVKLKQKRLEAGALNLA [DIS3]", "Criterion met"),
    ("KAASSTRIFQALPRKLR [POP1]", "Criterion not met"),
]
